Items are presented alongside their recorded % Inhibition at 1 nM Ig (interferon gamma release in human blood).
targetSystem: T1, human TL1A, endogenous in human whole blood (human, UniProt O95150 72-251, limits assumed)
T1 sequence (looked up): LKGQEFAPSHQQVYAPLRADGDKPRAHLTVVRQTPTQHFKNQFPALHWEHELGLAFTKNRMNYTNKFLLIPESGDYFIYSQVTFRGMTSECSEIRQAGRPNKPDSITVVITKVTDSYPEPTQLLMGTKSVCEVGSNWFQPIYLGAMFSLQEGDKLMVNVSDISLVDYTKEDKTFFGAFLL
methodDescription: cell-based or functional assay
Answer in %, number only, no unit symbol.

Known % Inhibition at 1 nM Ig (interferon gamma release in human blood) results, listed for orientation:
binder: A213 (antibody, human IgG1, V domains shown) VH: QVQLVQSGAEVKKPGASVKVSCKASGFDIQDTYMHWVRQRPGQGLEWMGRIDPASGHTKYDPKFQVRVTITTDTSTSTVYMELSSLRSEDTAVYYCARSGGLPDVWGQGTTVTVSS VL: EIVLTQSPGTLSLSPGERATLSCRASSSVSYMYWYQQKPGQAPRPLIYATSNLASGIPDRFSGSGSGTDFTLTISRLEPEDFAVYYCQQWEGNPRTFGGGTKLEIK
testValue: 48.6
//
binder: A217 (antibody, human IgG1, V domains shown) VH: QVQLVQSGAEVKKPGASVKVSCKASGFDIQDTYMHWVKQRPGQGLEWMGRIDPASGHTKYDPKFQVRVTITRDTSTSTVYMELSSLRSEDTAVYYCARSGGLPDVWGQGTTVTVSS VL: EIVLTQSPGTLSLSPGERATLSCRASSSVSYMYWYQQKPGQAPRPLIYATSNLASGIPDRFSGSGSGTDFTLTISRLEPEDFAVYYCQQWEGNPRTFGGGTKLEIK
testValue: 46

Task item: Item under review: A212 (antibody, human IgG1, V domains shown) VH: QVQLVQSGAEVKKPGASVKVSCKASGFDIQDTYMHWVRQRPGQGLEWIGRIDPASGHTKYDPKFQVRATITTDTSTSTAYLELSSLRSEDTAVYYCARSGGLPDVWGQGTTVTVSS VL: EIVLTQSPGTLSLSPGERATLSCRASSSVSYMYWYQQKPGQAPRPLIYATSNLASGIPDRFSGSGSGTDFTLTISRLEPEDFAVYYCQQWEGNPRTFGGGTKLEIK . Reported % Inhibition at 1 nM Ig (interferon gamma release in human blood)?
Reply: 46.8
